# Tested on: KRas G12D mutant
# assay.name: Ras GTP Binding Domain Inhibition Assay (Ras Superfamily Assay)
# condition.description: 20 μM compound, with SOS
experimental.readout: KRas G12D mutant + SOS: % inh.

CO[C@H]1CC[C@H](Nc2nc(-c3nccn3C)nn3cc(-c4ccn(C)n4)c(C(=O)NC4CC4)c23)C1 (racemic): 0 (0 = 0% inhibition)
COc1cccc(Nc2nc(-c3ccccn3)nn3cc(-c4ccn(C(C)C)n4)c(C)c23)n1: 0 (0 = 0% inhibition)
CO[C@H]1CC[C@@H](Nc2nc(-c3nccn3C)nn3cc(-c4ccn(C)n4)c(C)c23)C1 (racemic): 0 (0 = 0% inhibition)
COCCNc1nc(-c2nccn2C)nn2cc(-c3cccc(OC)c3Cl)c(-c3ccccc3)c12: A (A = 1-25% inhibition)
COc1cccc(-c2cn3nc(-c4nccn4C)nc(N[C@H]4C[C@H](OC)C4)c3c2-c2ccccc2)c1Cl: 0 (0 = 0% inhibition)
COC1CCCN(c2nc(-c3nccn3C)nn3cc(-c4ccn(C(C)C)n4)c(C)c23)C1 (racemic): 0 (0 = 0% inhibition)

Continue with the molecule presented below.
// query Let me know recorded KRas G12D mutant + SOS: % inh. for COCCNC(=O)c1c(-c2ccn(C)n2)cn2nc(-c3nccn3C)nc(N[C@H]3CC[C@H](OC)C3)c12 (racemic) , thanks.
// result A (A = 1-25% inhibition)
